Consider the following molecules and their measured GI50 readings.
- Tested on: A549
- procedure text: NCI tumour cell line growth inhibition, 48 h
Active and inactive are the calls of the source. Cut-off read from the data, not from the text of the source: active = GI50 up to about 1.1 µM and inactive = higher.
measurement name: GI50

CN(C(=O)c1ccccc1)C1CCCC(=O)CC1 (stereo not drawn)	> 100 µM (inactive)
CN(C(=O)C1CC1)C1C2CN3CCC(O2)C13 (stereo not drawn)	> 100 µM (inactive)
CC1=C(C(=O)Nc2ccccc2)C(c2ccc3c(c2)OCO3)C(C(=O)Nc2ccccc2)=C(C)N1	49.5 µM (inactive)
O=C1C(=CNc2ccc([N+](=O)[O-])cc2)C(=O)N(c2ccccc2)C(=O)N1c1ccccc1	> 100 µM (inactive)
CCCCC1CC(c2cccc([N+](=O)[O-])c2)=NO1 (stereo not drawn)	30.5 µM (inactive)
CC(C)(C)c1cc(C(=O)/C=C/c2ccc(C(=O)O)cc2)cc(C(C)(C)C)c1	2.07 µM (inactive)
C/C=C/c1cc2c(c(=O)o1)C(=O)[C@@H](O)[C@H](C)O2	19.7 µM (inactive)
c1ccc2c3c(ccc2c1)CSCc1ccc2ccccc2c1-3	> 100 µM (inactive)
CCc1nc2cc(F)ccc2[nH]c1=O	> 100 µM (inactive)
O=C(O)CCC1CCc2cccc(OCC(=O)O)c2C1=O (stereo not drawn)	> 100 µM (inactive)
CC1=CC(=O)/C(=C/NC(=S)NCCc2ccccc2)C(=O)O1	> 100 µM (inactive)
CN1CCc2c(sc3ncn(N)c(=N)c23)C1	> 100 µM (inactive)
CCOC(=O)c1ccc(-c2cccs2)[nH]1	> 62.5 µM (inactive)
CCN(CC)c1ccc(C2Nc3ccc4ccccc4c3C3=C2C(=O)CCC3)cc1 (stereo not drawn)	26.7 µM (inactive)
COP(=O)(OC)C(Nc1ccc(Cc2ccc(NC(c3ccco3)P(=O)(OC)OC)cc2)cc1)c1ccco1 (stereo not drawn)	> 100 µM (inactive)
COc1ccc(Nc2nc3ccccc3nc2-c2cccs2)cc1	80.4 µM (inactive)
O=C1CC23CC(=O)CC2(C1)c1ccccc1C3=O (stereo not drawn)	> 100 µM (inactive)
COc1ccc(C=O)cc1O[Si](C)(C)C(C)(C)C	> 100 µM (inactive)
CN(C)Cc1cc(C(=O)/C=C/c2cccc(Cl)c2)cc(CN(C)C)c1O	11.8 µM (inactive)
COC(=O)[C@]1(c2cc3ccccc3n2S(=O)(=O)c2ccccc2)CC2CCC1NC2 (stereo partly drawn)	12.6 µM (inactive)
COc1ccc2cc(/C=N\NC(=O)Nc3cccc4ccccc34)ccc2c1	> 100 µM (inactive)
CC(C)CCNC(=O)c1ccc(CNC(=O)/C=C/c2ccc(OCc3ccccc3)cc2)cc1	> 100 µM (inactive)
COc1ccc(N2C(=O)c3c4c(c5c([nH]c6ncccc65)c3C2=O)CCC(C(C)(C)C)C4)cc1 (stereo not drawn)	> 100 µM (inactive)
